biological target: NR1/NR2D (Homo sapiens, UniProt O15399+Q05586); assay: Two electrode voltage clamp, Xenopus laevis oocytes expressing NR1/NR2D; details: read-out: 2D Max
Sequence (O15399 28-1336, species assumed, other chains not shown): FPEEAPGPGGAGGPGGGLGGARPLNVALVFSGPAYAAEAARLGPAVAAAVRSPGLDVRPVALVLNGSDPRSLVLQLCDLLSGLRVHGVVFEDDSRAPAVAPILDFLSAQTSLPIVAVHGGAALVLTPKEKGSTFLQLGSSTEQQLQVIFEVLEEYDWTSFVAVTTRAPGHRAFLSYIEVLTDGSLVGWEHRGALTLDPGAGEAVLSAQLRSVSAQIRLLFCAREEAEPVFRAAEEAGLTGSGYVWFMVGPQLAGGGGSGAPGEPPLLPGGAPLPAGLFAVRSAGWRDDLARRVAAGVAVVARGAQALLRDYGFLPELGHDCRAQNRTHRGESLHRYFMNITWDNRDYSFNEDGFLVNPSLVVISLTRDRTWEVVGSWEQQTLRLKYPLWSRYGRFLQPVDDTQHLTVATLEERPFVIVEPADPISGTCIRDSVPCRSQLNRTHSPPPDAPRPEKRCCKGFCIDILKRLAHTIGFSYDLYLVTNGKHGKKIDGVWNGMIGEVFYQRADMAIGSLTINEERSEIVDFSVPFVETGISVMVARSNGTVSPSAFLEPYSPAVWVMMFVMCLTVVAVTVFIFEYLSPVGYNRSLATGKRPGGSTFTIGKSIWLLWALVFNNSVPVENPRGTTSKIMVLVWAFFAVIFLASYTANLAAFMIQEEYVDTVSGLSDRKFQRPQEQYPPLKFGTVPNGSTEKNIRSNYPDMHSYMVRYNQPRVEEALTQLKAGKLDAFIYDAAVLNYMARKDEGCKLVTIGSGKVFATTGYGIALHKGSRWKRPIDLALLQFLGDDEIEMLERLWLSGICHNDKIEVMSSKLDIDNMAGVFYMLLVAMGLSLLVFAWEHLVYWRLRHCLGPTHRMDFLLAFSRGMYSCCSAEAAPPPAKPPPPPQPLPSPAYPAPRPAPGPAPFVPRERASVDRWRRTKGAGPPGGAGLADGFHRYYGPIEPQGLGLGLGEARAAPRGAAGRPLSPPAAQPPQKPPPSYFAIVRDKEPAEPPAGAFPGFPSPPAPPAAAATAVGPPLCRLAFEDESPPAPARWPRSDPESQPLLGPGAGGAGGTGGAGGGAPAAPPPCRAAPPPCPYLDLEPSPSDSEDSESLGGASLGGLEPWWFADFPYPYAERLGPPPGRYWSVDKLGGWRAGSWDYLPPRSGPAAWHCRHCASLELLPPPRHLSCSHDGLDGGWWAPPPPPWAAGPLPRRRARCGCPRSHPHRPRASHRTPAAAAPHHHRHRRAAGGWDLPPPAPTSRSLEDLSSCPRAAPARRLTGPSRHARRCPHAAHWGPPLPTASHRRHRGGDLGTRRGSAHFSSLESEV
Please use YES for Emax under 200% and NO for everything else, ties included.

Example cases with answers are listed next.
CC(C)(C)c1ccc(C(=O)NC2=C(C(=O)O)C3CCCCCC3S2)cc1 (centres unmarked)
YES
COc1ccc(/C=C/C2c3cc(OC)c(OC)cc3CCN2C(=O)c2cccc(Cl)c2)cc1 (centres unmarked)
YES
COc1ccc(OC[C@@H]2c3cc(OC)c(OC)cc3CCN2C(=O)c2cccc(Cl)c2)cc1
NO

-- ask Given Cc1cc(C(=O)O)c(NC(=O)c2ccc(C(C)(C)C)cc2)s1 , is recorded Emax strictly lower than 200%?
-- reply NO

-- ask Repeat for the following molecule: CCOc1ccc(-c2csc(NC(=O)c3ccc(C(C)(C)C)cc3)c2C(=O)O)cc1
-- reply NO

-- ask Could you do the same for COc1ccc(OCC2c3cc(OC)c(OC)cc3CCN2C(=O)c2ccc(Cl)cc2)cc1 (centres unmarked) , please?
-- reply YES

From: patent US8822462B2
